- SYSTEM TESTED: hNPY2R (Homo sapiens)
- Construct: expressed in transfected cells; host or cells: HEK-293 cells carrying a CRE-luciferase reporter gene
- PROCEDURE DETAILS: hNPY2R CreLuc reporter gene assay in 0.5% and 100% plasma
- Assay type: cell-based
- SETTINGS: CreLuc reporter gene assay, 0.5% human plasma; read-out: hNPY2R 0.5% hP
Starred links: 1 amine or outer side, 2 acyl side, 3 side chain; linkers in the order of their positions; H or OH if unused. Non-standard residues stand in square brackets, D forms with d. Groups on a side chain read outwards from the residue. *: point of attachment. C20 diacid = O=C(O)CCCCCCCCCCCCCCCCCCC(=O)*; γGlu = O=C(O)[C@H](CCC(=O)[*:2])N[*:1]; εLys = N[C@@H](CCCCN[*:1])C(=O)[*:2]; AEEA = NCCOCCOCC(=O)O; Aib = CC(C)(N)C(=O)O
Each entry below carries its recorded EC50.
ENDPOINT: EC50 (nM)

H-Y[Aib]EGTFTSDYSI[Aib]LEKQAQ[Aib]AFVEWLIK([εLys-γGlu-γGlu-γGlu-γGlu-γGlu-γGlu-C20 diacid])GGPSSPQSLRHYYNWLTRQRY-NH2 [Compound 41] | 10.2
H-Y[Aib]EGTFTSDYSI[Aib]LEKQAQ[Aib]EFVEWLIK([AEEA-AEEA-γGlu-γGlu-γGlu-γGlu-C20 diacid])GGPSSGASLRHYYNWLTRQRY-NH2 [Compound 205] | 10.6

* * *

- SYSTEM TESTED: hNPY2R (Homo sapiens, UniProt P49146)
- Construct: expressed in transfected cells; host or cells: HEK-293 cells carrying a CRE-luciferase reporter gene
- Sequence (P49146 whole entry): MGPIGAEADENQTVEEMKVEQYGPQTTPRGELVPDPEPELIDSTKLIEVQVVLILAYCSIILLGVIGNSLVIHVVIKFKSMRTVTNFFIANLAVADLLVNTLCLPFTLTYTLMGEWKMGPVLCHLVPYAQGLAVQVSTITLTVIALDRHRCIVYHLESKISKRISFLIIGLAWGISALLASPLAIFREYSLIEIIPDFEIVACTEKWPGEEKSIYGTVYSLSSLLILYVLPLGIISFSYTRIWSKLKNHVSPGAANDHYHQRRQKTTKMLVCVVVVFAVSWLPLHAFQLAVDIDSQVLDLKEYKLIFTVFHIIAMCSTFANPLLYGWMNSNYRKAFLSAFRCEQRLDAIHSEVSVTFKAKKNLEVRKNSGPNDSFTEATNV
- PROCEDURE DETAILS: hNPY2R CreLuc reporter gene assay in 0.5% and 100% plasma
- Type: cell-based
- SETTINGS: CreLuc reporter gene assay, 0.5% human plasma; read-out: hNPY2R 0.5% hP
Starred links: 1 amine or outer side, 2 acyl side, 3 side chain; linkers in the order of their positions; H or OH if unused. Positions of bridges follow the written chain, without caps; N, C: chain ends. Non-standard residues stand in square brackets, D forms with d. Groups on a side chain read outwards from the residue. Chains are numbered I, II in the order given. No end group written: not given here. *: point of attachment. C20 diacid = O=C(O)CCCCCCCCCCCCCCCCCCC(=O)*; C18 diacid = O=C(O)CCCCCCCCCCCCCCCCC(=O)*; γGlu = O=C(O)[C@H](CCC(=O)[*:2])N[*:1]; εLys = N[C@@H](CCCCN[*:1])C(=O)[*:2]; AEEA = NCCOCCOCC(=O)O; Aib = CC(C)(N)C(=O)O
Each entry below carries its recorded EC50.
ENDPOINT: EC50 (µM)

H-Y[Aib]EGTFTSDYSI[Aib]LEKQAQ[Aib]AFVEWLIK([εLys-γGlu-γGlu-γGlu-γGlu-γGlu-C20 diacid])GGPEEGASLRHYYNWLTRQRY-NH2 [Compound 230] | 0.0154
Y[Aib]EGTFTSDYSI[Aib]LEKQAQ[Aib]AFVEWLIK([AEEA-AEEA-γGlu-γGlu-γGlu-C18 diacid])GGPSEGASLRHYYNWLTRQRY-NH2 [Compound 299] | 0.011
I: Y[Aib]EGTFTSDYSI[Aib]LEKQAQ[Aib]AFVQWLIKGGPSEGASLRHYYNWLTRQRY-NH2 / II: {C20 diacid}-EEEEE[εLys] (amide I:28-II:C) [Compound 240] | 0.0107
H-Y[Aib]EGTFTSDYSI[Aib]LEKQAQ[Aib]EFVEWLIK([AEEA-AEEA-γGlu-γGlu-γGlu-C18 diacid])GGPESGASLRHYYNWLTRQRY-NH2 [Compound 81] | 0.0111
H-Y[Aib]EGTFTSDYSI[Aib]LEKQAQ[Aib]AFVEWLIK([εLys-γGlu-γGlu-γGlu-γGlu-γGlu-γGlu-C20 diacid])GGPRYYASLRHYYNWLTRQRY-NH2 [Compound 62] | 0.0136
H-Y[Aib]EGTFTSDYSI[Aib]LEKQAQ[Aib]AFVEWLIK([εLys-γGlu-γGlu-γGlu-γGlu-γGlu-γGlu-C20 diacid])GGPSSGASLLHYYNWLTRQRY-NH2 [Compound 210] | 0.0541
H-Y[Aib]EGTFTSDYSI[Aib]LEKQAQ[Aib]AFVEWLIK([εLys-γGlu-γGlu-γGlu-γGlu-γGlu-γGlu-C20 diacid])GGPSSGES[Aib]RHYYNWLTRQRY-NH2 [Compound 49] | 0.0125
H-Y[Aib]EGTFTSDYSI[Aib]LEKQAQ[Aib]AFVQWLIK([AEEA-AEEA-Glu-Glu-Glu-Glu-C18 diacid])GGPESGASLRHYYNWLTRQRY-NH2 [Compound 52] | 0.0187
I: H-Y[Aib]EGTFTSDYSI[Aib]LEKQAQ[Aib]AFVQWLIKGGPEEGASLRHYYNWLTRQRY-NH2 / II: {C18 diacid}-EEEEE[εLys] (amide I:28-II:C) [Compound 155] | 0.017
